Below, each entry is listed with its recorded IC50.
# TARGET OF ASSAY: IκB-α
# TEST: IκB-α kinase-inhibitory activity
# Format: biochemical
# RECORDED CONDITIONS: Table 3, unit nM
ENDPOINT LABEL: IC50

| COMPOUND | READING |
| --- | --- |
| CC(C)[C@H](CO)Nc1nc(N(C)CCc2ccc(O)c(O)c2)c2ncn(C(C)C)c2n1 | 460 nM |
| CC(C)[C@H](CO)Nc1nc(NC(CO)c2ccccc2)c2ncn(C(C)C)c2n1 (stereo partly drawn) | 670 nM |
| CC(C)[C@H](CO)Nc1nc(NCc2ccc(O)c(O)c2)c2ncn(C(C)C)c2n1 | 320 nM |

* * *

Entries annotated with measured HIV-2 CEM IC50
# Test system: HIV-2
# TEST: anti-HIV-2 activity in CEM cells
# Type: cell-based

| COMPOUND | HIV-2 CEM IC50 |
| --- | --- |
| CN(CCc1ccc(O)c(O)c1)c1nc(N)nc2c1ncn2CCOCP(=O)(O)O | >20 µg/mL |
| CC(Cn1cnc2c(NC(CO)c3ccccc3)nc(N)nc21)OCP(=O)(O)O (stereo not shown) | >20 µg/mL |
| CC(Cn1cnc2c(N(C)CCc3ccc(O)c(O)c3)nc(N)nc21)OCP(=O)(O)O (stereo not shown) | 7.8 µg/mL |
| CC(Cn1cnc2c(NCc3ccc(O)c(O)c3)nc(N)nc21)OCP(=O)(O)O (stereo not shown) | 8.3 µg/mL |
| Nc1nc(NCc2ccccc2)c2ncn(CCOCP(=O)(O)O)c2n1 [PME-derivatives: Benzylamino, reference compound] | >20 µg/mL |
| Nc1nc(NC(CO)c2ccccc2)c2ncn(CCOCP(=O)(O)O)c2n1 (racemic) | >20 µg/mL |
| Nc1nc(NCc2ccc(O)c(O)c2)c2ncn(CCOCP(=O)(O)O)c2n1 | >20 µg/mL |

* * *

# TARGET OF ASSAY: CDC2 (Homo sapiens, UniProt P06493)
# Construct: made in house; host or cells: Sf9 insect cells, baculovirus co-infection
# Sequence (P06493 whole entry, species assumed): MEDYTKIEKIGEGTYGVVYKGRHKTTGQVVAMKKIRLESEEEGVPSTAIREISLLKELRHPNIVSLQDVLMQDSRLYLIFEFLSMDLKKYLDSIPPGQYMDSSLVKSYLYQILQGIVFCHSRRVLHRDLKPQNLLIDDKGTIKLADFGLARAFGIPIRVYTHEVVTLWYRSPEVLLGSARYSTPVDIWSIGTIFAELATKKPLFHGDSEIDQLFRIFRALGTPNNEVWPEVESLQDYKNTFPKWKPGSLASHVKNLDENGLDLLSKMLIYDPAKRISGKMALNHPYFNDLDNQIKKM
# Sequence (P14635 whole entry partner, species assumed): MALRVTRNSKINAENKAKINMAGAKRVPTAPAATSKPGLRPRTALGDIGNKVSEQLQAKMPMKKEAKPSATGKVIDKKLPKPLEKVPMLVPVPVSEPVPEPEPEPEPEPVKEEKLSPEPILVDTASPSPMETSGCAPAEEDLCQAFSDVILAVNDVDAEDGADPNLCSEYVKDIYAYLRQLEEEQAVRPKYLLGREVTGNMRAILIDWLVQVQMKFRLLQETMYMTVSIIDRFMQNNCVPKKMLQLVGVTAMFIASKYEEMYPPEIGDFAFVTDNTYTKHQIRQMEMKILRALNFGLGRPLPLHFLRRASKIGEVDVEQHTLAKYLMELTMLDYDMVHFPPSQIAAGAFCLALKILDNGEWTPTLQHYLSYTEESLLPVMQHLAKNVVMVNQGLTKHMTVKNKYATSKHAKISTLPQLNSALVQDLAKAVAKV
# TEST: p34cdc2 (CDC2) kinase inhibition assay, histone H1 substrate
# Format: biochemical
# RECORDED CONDITIONS: Table 5, CDC2 activity in cell free system
pIC50: −log10 of the molar value.
Please enter y where pIC50 is greater than or equal to 5, and n where it is lower.

| COMPOUND | GROUP |
| --- | --- |
| CC(C)n1cnc2c(NC(CO)c3ccccc3)nc(NCCCO)nc21 (racemic) | n |
| CC(C)n1cnc2c(SCc3ccccc3)nc(NCCCO)nc21 | n |
| CSc1nc(NC(C)c2ccc(O)c(O)c2)c2ncn(C(C)C)c2n1 (centres unmarked) | n |
| CCCCCCNc1nc(NC(CO)c2ccccc2)c2ncn(C(C)C)c2n1 (centres unmarked) | n |
| Cn1cnc2c(NC(CO)c3ccccc3)nc(N3CCOCC3)nc21 (centres unmarked) | y |
| CC(C)n1cnc2c(NC(CO)c3ccccc3)nc(CCCCCC#N)nc21 (racemic) | y |
| CC(C)n1cnc2c(NCc3ccccc3)nc(NCCCN)nc21 | n |
| CC(Nc1nc(NCCCO)nc2c1ncn2C(C)C)c1ccc(O)c(O)c1 (centres unmarked) | y |
| CC(C)n1cnc2c(NC(CO)c3ccccc3)nc(NCC(O)CO)nc21 (centres unmarked) | n |
| CCCCCCNc1nc(NC(C)c2ccc(O)c(O)c2)c2ncn(C(C)C)c2n1 (centres unmarked) | y |
| CC(C)n1cnc2c(NC(CO)c3ccccc3)nc(SCCO)nc21 (centres unmarked) | y |

* * *

# System: CD34+ hematopoietic progenitors (HPC) from adult bone marrow
# TEST: myeloid colony-forming unit (CFU) assay
# Assay type: cell-based, human
# RECORDED CONDITIONS: Homo sapiens, 336 h; 14 days, methylcellulose, total colony output
Let's look at some molecules and their measured IC50.

| MOLECULE | IC50 |
| --- | --- |
| CCCCCCNc1nc(NC(CO)c2ccccc2)c2ncn(C(C)C)c2n1 (stereo not shown) | > 50 µM |
| CC(C)n1cnc2c(NCc3ccccc3)nc(NCCCN)nc21 | 37 µM |
| CC(C)n1cnc2c(NC(CO)c3ccccc3)nc(NCCCO)nc21 (racemic) | > 50 µM |
| CC(C)=CCNc1nc(NCCO)nc2c1ncn2C | > 50 µM |

* * *

Examples of compounds with documented IC50 follow.
# TARGET OF ASSAY: CDC2 (Homo sapiens)
# Construct: made in house; host or cells: Sf9 insect cells, baculovirus co-infection
# TEST: p34cdc2 (CDC2) kinase inhibition assay, histone H1 substrate
# Format: biochemical
# RECORDED CONDITIONS: Table 3, unit nM
ENDPOINT LABEL: IC50 (nM)

| COMPOUND | READING |
| --- | --- |
| CC(C)[C@H](CO)Nc1nc(N(C)CCc2ccc(O)c(O)c2)c2ncn(C(C)C)c2n1 | 390 |
| CC(C)[C@H](CO)Nc1nc(NC(CO)c2ccccc2)c2ncn(C(C)C)c2n1 (stereo partly drawn) | 540 |
| CC(C)[C@H](CO)Nc1nc(NCc2ccc(O)c(O)c2)c2ncn(C(C)C)c2n1 | 250 |

* * *

# System: CD34+ hematopoietic progenitors (HPC) from adult bone marrow
# TEST: myeloid colony-forming unit (CFU) assay
# Type: cell-based, human
# RECORDED CONDITIONS: 14 days, methylcellulose, total colony output
pIC50: −log10 of the molar value.

| MOLECULE | TARGET OF ASSAY | pIC50 |
| --- | --- | --- |
| CSc1nc(NC(C)c2ccc(O)c(O)c2)c2ncn(C(C)C)c2n1 (stereo not shown) [P16] | CD34+ hematopoietic progenitors (HPC) from adult bone marrow | < 4.30 |

* * *

# System: β-adrenergic receptors
# TEST: isoproterenol-induced intracellular cAMP synthesis in rat C6 glioma
# Assay type: cell-based
# RECORDED CONDITIONS: cAMP induced by 5 μM (−) isoproterenol, 30 min, rat C6 glioma
ENDPOINT LABEL: Effect

| COMPOUND | ENDPOINT LABEL | READING |
| --- | --- | --- |
| CC(C)C(CO)Nc1nc(NCc2ccccc2)c2ncn(C(C)C)c2n1 (centres unmarked) | Effect | inhibition |
| CC[C@@H](CO)Nc1nc(N[C@@H](CO)c2ccccc2)c2ncn(C(C)C)c2n1 | Effect | inactive |
| CC(C)n1cnc2c(NCc3ccccc3)nc(NCCCN)nc21 | Effect | inhibition |
| CC(O)CNc1nc(NC(CO)c2ccccc2)c2ncn(C(C)C)c2n1 (centres unmarked) | Effect | inactive |
| CCCCCCNc1nc(NC(CO)c2ccccc2)c2ncn(C(C)C)c2n1 (centres unmarked) | Effect | inhibition |

* * *

# TARGET OF ASSAY: CDC2 (Homo sapiens)
# Construct: made in house; host or cells: Sf9 insect cells, baculovirus co-infection
# TEST: p34cdc2 (CDC2) kinase inhibition assay, histone H1 substrate
# Assay type: biochemical
# RECORDED CONDITIONS: Table 3
Quick reference for log10(IC50) among some compounds
ENDPOINT LABEL: log10(IC50) (log10 of the value in µM)

| COMPOUND | log10(IC50) |
| --- | --- |
| CCCCCCNc1nc(N(C)CCc2ccc(O)c(O)c2)c2ncn(C(C)C)c2n1 | 0.41 |
| CC[C@H](CO)Nc1nc(N(C)CCc2ccc(O)c(O)c2)c2ncn(C(C)C)c2n1 | -0.02 |
| CN(CCc1ccc(O)c(O)c1)c1nc(NCCO)nc2c1ncn2C | 1.01 |
| CC(C)n1cnc2c(NC(CO)c3ccccc3)nc(NCCO)nc21 (racemic) | 0.15 |
| Cn1cnc2c(NCc3ccc(O)c(O)c3)nc(NCCO)nc21 | 0.62 |
| Cn1cnc2c(NC(CO)c3ccccc3)nc(NCCO)nc21 (racemic) | 0.75 |
| CC(O)CNc1nc(NC(CO)c2ccccc2)c2ncn(C(C)C)c2n1 (stereo not shown) | -0.22 |

* * *

# Tested on: T-lymphoblastic leukemia cell line CEM
# TEST: MTT cytotoxicity assay, CEM
# Format: cell-based, human
# RECORDED CONDITIONS: Homo sapiens, 72 hours (TCS50 in the method)
ENDPOINT LABEL: IC50 (µM)

| MOLECULE | UNIT ANNOTATION | READING |
| --- | --- | --- |
| CCCCCCNc1nc(NC(CO)c2ccccc2)c2ncn(C(C)C)c2n1 (stereo not shown) | µM | 34 |

* * *

# TARGET OF ASSAY: IκB-α
# TEST: IκB-α kinase-inhibitory activity
# Format: biochemical
# RECORDED CONDITIONS: Table 3
ENDPOINT LABEL: IC50 (µM)

| COMPOUND | ENDPOINT LABEL | READING |
| --- | --- | --- |
| Cn1cnc2c(NCc3ccc(O)c(O)c3)nc(NCCO)nc21 | IC50 | 10.8 |
| CC[C@H](CO)Nc1nc(NC(CO)c2ccccc2)c2ncn(C(C)C)c2n1 (stereo partly drawn) | IC50 | 2.15 |
| Cn1cnc2c(NC(CO)c3ccccc3)nc(NCCO)nc21 (racemic) | IC50 | 13.7 |
| CC[C@H](CO)Nc1nc(NCc2ccc(O)c(O)c2)c2ncn(C(C)C)c2n1 | IC50 | 1.25 |
| CN(CCc1ccc(O)c(O)c1)c1nc(NCCO)nc2c1ncn2C | IC50 | 25.4 |
| CC[C@H](CO)Nc1nc(N(C)CCc2ccc(O)c(O)c2)c2ncn(C(C)C)c2n1 | IC50 | 3.2 |
